- measuredTarget: JAK3 (Homo sapiens)
- procedureDetails: Inhibition of a panel of kinases, in vitro HotSpot kinase assay: JAK3
- Type: biochemical
- measurementContext: Table 11, Formula B-I; 1 μM ATP; read-out: JAK3 (IC50)
The following compounds are listed with their measured IC50 values.

# annotated cases, reported IC50 shown
INSERT INTO measurements (compound, assaymetric, assayresult) VALUES
  ('CN1CCN(C(=O)c2ccc(Nc3nc(NC4CCC(NC(=O)N(C)C)CC4)cnc3C(N)=O)cc2)CC1 (stereo not drawn)', 'IC50', '100 to 1000 nM'),
  ('Cc1cc(Nc2nc(NC3CCC(NC(=O)c4ccc(N(C)C)cc4)CC3)cnc2C(N)=O)sn1 (stereo not drawn)', 'IC50', '< 100 nM'),
  ('CN1CCN(C(=O)c2ccc(Nc3nc(NC4CCC(NC(=O)c5ccc(C6CC6)cc5F)CC4)cnc3C(N)=O)cc2)CC1 (stereo not drawn)', 'IC50', '< 100 nM');

QUERY: Form field: reported IC50 of CN1CCN(C(=O)c2ccc(Nc3nc(N[C@H]4CC[C@@H](NC(=O)N(C)C)CC4)cnc3C(N)=O)cc2)CC1
RESULT: 1000 to 10000 nM

QUERY: Form field: reported IC50 of CN(C)c1ccc(C(=O)N[C@H]2CC[C@H](Nc3cnc(C(N)=O)c(Nc4ccc5ncccc5c4)n3)CC2)cc1
RESULT: > 10000 nM

QUERY: Form field: reported IC50 of CN1CCN(C(=O)c2ccc(Nc3nc(N[C@H]4CC[C@H](NC(=O)c5ccc(C6CC6)cc5F)CC4)cnc3C(N)=O)cc2)CC1
RESULT: 100 to 1000 nM

QUERY: Form field: reported IC50 of Cc1cc(Nc2nc(N[C@H]3CC[C@H](NC(=O)c4ccc(N(C)C)cc4)CC3)cnc2C(N)=O)sn1
RESULT: 100 to 1000 nM

QUERY: Form field: reported IC50 of Cc1cc(Nc2nc(NC3CCC(NC(=O)c4ccccc4)CC3)cnc2C(N)=O)sn1 (stereo not drawn)
RESULT: < 100 nM

QUERY: Form field: reported IC50 of Cc1cc(Nc2nc(NC3CCC(NC(=O)N(C)C)CC3)cnc2C(N)=O)sn1 (stereo not drawn)
RESULT: < 100 nM

====

The following molecules are listed with their measured pIC50 values.
- measuredTarget: EGFR (Homo sapiens, UniProt P00533)
- Sequence (P00533 25-1210): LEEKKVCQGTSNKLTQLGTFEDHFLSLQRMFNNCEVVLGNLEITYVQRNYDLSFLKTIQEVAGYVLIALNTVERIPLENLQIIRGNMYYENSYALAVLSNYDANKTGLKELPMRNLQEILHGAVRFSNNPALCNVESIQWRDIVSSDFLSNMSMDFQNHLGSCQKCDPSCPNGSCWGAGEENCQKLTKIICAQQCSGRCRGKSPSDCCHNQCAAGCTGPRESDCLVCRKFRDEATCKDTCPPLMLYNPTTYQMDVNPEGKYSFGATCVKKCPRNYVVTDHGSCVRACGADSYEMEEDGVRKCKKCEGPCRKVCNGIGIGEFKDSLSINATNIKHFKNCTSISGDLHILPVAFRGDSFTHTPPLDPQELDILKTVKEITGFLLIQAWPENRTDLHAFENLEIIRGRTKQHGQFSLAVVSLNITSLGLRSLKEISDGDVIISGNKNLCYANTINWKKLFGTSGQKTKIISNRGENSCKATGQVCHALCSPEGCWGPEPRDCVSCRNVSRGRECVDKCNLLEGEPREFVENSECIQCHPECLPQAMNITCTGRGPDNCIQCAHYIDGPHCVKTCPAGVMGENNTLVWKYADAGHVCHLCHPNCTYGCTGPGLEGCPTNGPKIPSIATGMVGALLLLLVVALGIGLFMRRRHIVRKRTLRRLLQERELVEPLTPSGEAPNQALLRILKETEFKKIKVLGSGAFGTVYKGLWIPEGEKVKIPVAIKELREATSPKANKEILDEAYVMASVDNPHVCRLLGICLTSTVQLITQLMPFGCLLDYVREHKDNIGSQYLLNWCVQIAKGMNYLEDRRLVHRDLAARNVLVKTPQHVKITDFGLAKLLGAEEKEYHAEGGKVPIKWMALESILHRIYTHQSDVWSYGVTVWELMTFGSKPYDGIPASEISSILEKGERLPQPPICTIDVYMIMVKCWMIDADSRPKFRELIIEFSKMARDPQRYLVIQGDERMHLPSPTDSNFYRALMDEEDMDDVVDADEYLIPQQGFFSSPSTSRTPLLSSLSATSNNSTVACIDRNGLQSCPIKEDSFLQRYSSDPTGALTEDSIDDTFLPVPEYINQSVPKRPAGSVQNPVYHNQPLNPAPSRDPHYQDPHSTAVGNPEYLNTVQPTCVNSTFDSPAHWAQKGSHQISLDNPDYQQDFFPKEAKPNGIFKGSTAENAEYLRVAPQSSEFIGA
- procedureDetails: Inhibition of a panel of kinases, in vitro HotSpot kinase assay: EGFR
- Assay type: biochemical
- measurementContext: D-compounds panel data; 1 μM ATP
pIC50: −log10 of the molar value.

# annotated cases, reported pIC50 shown
INSERT INTO assay_data (molecule, assayresult) VALUES
  ('C[C@@H]1[C@H](NC(=O)c2ccc(C3CC3)c(Cl)c2)CCCN1c1cnc(C(N)=O)c(Nc2ccc(N3CCN(C)CC3)cc2)n1 [Example D-17]', '5.00 to 6.00'),
  ('Cc1cc(Nc2nc(N3CCC[C@H](c4ncc(-c5ccccc5)[nH]4)C3)cnc2C(N)=O)sn1 [Example D-172]', '7.00 to 8.00'),
  ('Cn1cc(Nc2nc(N3CC[C@@H](O)[C@H](NC(=O)c4ccc(C5CC5)cc4)C3)cnc2C(N)=O)cn1 (racemic) [Example D-26]', '< 5.00');

Now let's try a different one.
QUERY: Form field: reported pIC50 of C[C@@H]1[C@H](NC(=O)c2ccc(C3CC3)nc2)CCCN1c1cnc(C(N)=O)c(Nc2cnn(C)c2)n1 [Example D-18]
RESULT: 5.00 to 6.00

====

- measuredTarget: UniProt P06239
- Sequence (P06239 whole entry): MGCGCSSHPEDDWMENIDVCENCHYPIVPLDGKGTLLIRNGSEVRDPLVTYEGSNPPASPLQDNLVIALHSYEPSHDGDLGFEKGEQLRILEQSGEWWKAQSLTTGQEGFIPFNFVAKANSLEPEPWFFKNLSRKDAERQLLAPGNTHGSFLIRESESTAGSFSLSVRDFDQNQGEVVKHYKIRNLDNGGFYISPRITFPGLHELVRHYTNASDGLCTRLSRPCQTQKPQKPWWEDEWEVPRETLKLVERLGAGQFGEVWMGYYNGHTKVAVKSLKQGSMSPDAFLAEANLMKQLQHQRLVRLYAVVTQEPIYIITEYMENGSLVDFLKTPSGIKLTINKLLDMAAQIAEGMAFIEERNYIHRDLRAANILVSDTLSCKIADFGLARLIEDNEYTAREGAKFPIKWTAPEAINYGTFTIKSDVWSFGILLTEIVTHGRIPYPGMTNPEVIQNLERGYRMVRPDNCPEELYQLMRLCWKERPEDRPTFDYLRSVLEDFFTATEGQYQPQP
- procedureDetails: Inhibition of a panel of kinases, in vitro HotSpot kinase assay: LCK
- Assay type: biochemical
- measurementContext: D-compounds panel data; 1 μM ATP; read-out: IC50 LCK
The following molecules are listed with their measured IC50 values.

INSERT INTO results (molecule, measuredtarget, assaymetric, assayresult) VALUES
  ('CN(C)C(=O)N1CC[C@@H]2[C@H]1CCCN2c1cnc(C(N)=O)c(Nc2cnn(C)c2)n1 (racemic)', 'UniProt P06239', 'IC50', '1000 to 10000 nM'),
  ('C[C@@H]1[C@H](NC(=O)c2ccc(SC(F)(F)F)cc2)CCCN1c1cnc(C(N)=O)c(Nc2ccc(N3CCN(C)CC3)cc2)n1', 'UniProt P06239', 'IC50', '100 to 1000 nM'),
  ('CN1CCN([C@@H]2CCCN(c3cnc(C(N)=O)c(Nc4cnn(C)c4)n3)C2)C1=O', 'UniProt P06239', 'IC50', '100 to 1000 nM'),
  ('CN1CCN(C(=O)c2ccc(Nc3nc(N[C@H]4CC[C@@H](NC(=O)c5ccc(C6CC6)cc5F)CC4)cnc3C(N)=O)cc2)CC1', 'UniProt P06239', 'IC50', '10 to 100 nM'),
  ('CN(C)C(=O)N[C@H]1CCCN(c2cnc(C(N)=O)c(Nc3ccc4ncccc4c3)n2)[C@@H]1CO (racemic)', 'UniProt P06239', 'IC50', '> 10000 nM');

QUERY: Form field: reported IC50 of C[C@@H]1[C@H](NC(=O)c2ccc(C3CC3)c(O)c2)CCCN1c1cnc(C(N)=O)c(Nc2cnn(C)c2)n1
RESULT: 100 to 1000 nM

QUERY: Form field: reported IC50 of C[C@@H]1[C@H](NC(=O)c2ccc(C3CC3)cc2)CCCN1c1cnc(C(N)=O)c(Nc2ccc(N3CCC4(CC3)COC4)cc2)n1
RESULT: 100 to 1000 nM

QUERY: Form field: reported IC50 of C[C@@H]1[C@H](NC(=O)c2ccc(C(C)(C)C)cn2)CCCN1c1cnc(C(N)=O)c(Nc2cnn(C)c2)n1
RESULT: 100 to 1000 nM

QUERY: Form field: reported IC50 of CC(=O)NC(C)(C)c1ccc(C(=O)N[C@@H]2CCCN(c3cnc(C(N)=O)c(Nc4cnn(C)c4)n3)[C@@H]2C)cc1
RESULT: 100 to 1000 nM

QUERY: Form field: reported IC50 of C[C@H]1CC[C@@H](NC(=O)c2ccc(C(C)(C)O)cc2)CN1c1nnc(C(N)=O)c(Nc2cnn(C)c2)n1
RESULT: 10 to 100 nM

QUERY: Form field: reported IC50 of C[C@@H]1[C@H](NC(=O)c2cc(C(C)(C)C)on2)CCCN1c1cnc(C(N)=O)c(Nc2cnn(C)c2)n1
RESULT: 100 to 1000 nM

QUERY: Form field: reported IC50 of C[C@@H]1[C@H](NC(=O)c2ccc(C(C)(C)O)c(F)c2)CCCN1c1cnc(C(N)=O)c(Nc2cnn(C)c2)n1
RESULT: 10 to 100 nM

QUERY: Form field: reported IC50 of CC(C)c1ccc(C(=O)N[C@@H]2CCCN(c3cnc(C(N)=O)c(Nc4cnn(C)c4)n3)[C@@H]2C)cc1
RESULT: 100 to 1000 nM

QUERY: Form field: reported IC50 of C[C@@H]1[C@H](NC(=O)N(C)C)CCCN1c1cnc(C(N)=O)c(Nc2cnn(C)c2)n1
RESULT: 100 to 1000 nM

====

- measuredTarget: JAK3 (Homo sapiens)
- Sequence (P52333 1-1124): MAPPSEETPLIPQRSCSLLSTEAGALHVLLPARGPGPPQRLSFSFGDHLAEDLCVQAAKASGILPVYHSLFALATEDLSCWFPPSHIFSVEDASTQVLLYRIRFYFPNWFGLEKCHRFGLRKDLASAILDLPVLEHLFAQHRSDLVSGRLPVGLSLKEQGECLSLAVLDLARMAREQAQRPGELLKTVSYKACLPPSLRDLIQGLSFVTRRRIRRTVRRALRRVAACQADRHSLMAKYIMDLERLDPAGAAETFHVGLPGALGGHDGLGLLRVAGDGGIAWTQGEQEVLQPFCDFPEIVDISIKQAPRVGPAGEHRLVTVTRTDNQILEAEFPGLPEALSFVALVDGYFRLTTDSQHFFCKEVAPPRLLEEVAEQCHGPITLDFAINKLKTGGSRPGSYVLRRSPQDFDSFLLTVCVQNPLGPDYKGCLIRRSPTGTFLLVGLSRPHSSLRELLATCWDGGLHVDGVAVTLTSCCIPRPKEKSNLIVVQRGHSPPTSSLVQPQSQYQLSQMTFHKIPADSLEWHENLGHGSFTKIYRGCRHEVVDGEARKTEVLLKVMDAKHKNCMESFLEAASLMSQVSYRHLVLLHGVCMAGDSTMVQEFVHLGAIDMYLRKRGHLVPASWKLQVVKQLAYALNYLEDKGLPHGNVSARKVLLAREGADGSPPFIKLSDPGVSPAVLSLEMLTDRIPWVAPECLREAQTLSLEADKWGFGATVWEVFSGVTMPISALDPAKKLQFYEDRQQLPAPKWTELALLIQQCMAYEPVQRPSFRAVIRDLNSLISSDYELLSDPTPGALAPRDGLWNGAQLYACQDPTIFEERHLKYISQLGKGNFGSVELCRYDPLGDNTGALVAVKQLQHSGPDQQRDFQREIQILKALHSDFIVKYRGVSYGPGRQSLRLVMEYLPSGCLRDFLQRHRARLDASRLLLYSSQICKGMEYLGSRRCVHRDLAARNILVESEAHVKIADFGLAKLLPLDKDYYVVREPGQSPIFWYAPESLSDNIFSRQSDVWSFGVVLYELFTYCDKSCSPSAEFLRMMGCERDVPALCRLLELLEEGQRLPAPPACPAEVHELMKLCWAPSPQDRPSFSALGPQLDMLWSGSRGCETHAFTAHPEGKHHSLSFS
- procedureDetails: Inhibition of a panel of kinases, in vitro HotSpot kinase assay: JAK3
- Assay type: biochemical
- measurementContext: D-compounds panel data; 1 μM ATP; read-out: IC50 JAK3
The following compounds are listed with their measured IC50 values.

# annotated cases, reported IC50 shown
INSERT INTO assay_data (compound, assayresult) VALUES
  ('C[C@@H]1[C@H](NC(=O)c2ccc(S(F)(F)(F)(F)F)cc2)CCCN1c1cnc(C(N)=O)c(Nc2cnn(C)c2)n1 [Example D-230]', '> 10000 nM'),
  ('CC(C)n1ccc(C(=O)N[C@@H]2CCCN(c3cnc(C(N)=O)c(Nc4cnn(C)c4)n3)[C@@H]2C)cc1=O [Example D-35]', '100 to 1000 nM'),
  ('C[C@@H]1[C@H](NC(=O)c2ccc(N(C)C)cc2)CCCN1c1cnc(C(N)=O)c(Nc2cnn(C)c2)n1 [Example D-24]', '1000 to 10000 nM'),
  ('C[C@@H]1[C@H](NC(=O)c2ccc(C3CC3)cc2)CCCN1c1cnc(C(N)=O)c(Nc2ccc(OC3C[C@H]4CC[C@@H](C3)N4C)cc2)n1 (stereo partly drawn) [Example D-106]', '100 to 1000 nM'),
  ('CC(C)N1CCN(c2ccc(Nc3nc(N4CCC[C@@H](NC(=O)c5ccc(C6CC6)cc5F)[C@H]4C)cnc3C(N)=O)cc2)CC1 [Example D-7]', '1000 to 10000 nM'),
  ('CC(C)c1ccc(C(=O)N[C@@H]2CCCN(c3cnc(C(N)=O)c(Nc4cnn(C)c4)n3)[C@@H]2C)cc1 [Example D-197]', '1000 to 10000 nM'),
  ('C[C@@H]1[C@H](NC(=O)c2ncc(C3CC3)cn2)CCCN1c1cnc(C(N)=O)c(Nc2cnn(C)c2)n1 [Example D-198]', '100 to 1000 nM'),
  ('C[C@@H]1[C@H](NC(=O)c2cc(C(C)(C)C)n[nH]2)CCCN1c1cnc(C(N)=O)c(Nc2cnn(C)c2)n1 [Example D-244]', '100 to 1000 nM'),
  ('Cn1cc(Nc2nc(N3CCC[C@@H](n4ccc5cc(C6CC6)ccc5c4=O)C3)cnc2C(N)=O)cn1 [Example D-184]', '> 10000 nM'),
  ('Cn1cc(Nc2nc(N3C[C@@H](NC(=O)c4ccc(C5CC5)cc4)CC(F)(F)C3)cnc2C(N)=O)cn1 [Example D-189]', '1000 to 10000 nM');

QUERY: Form field: reported IC50 of Cc1ccc(-c2cnc([C@H]3CCCN(c4cnc(C(N)=O)c(Nc5cc(C)ns5)n4)C3)[nH]2)cc1 [Example D-136]
RESULT: 1000 to 10000 nM

QUERY: Form field: reported IC50 of C[C@@H]1[C@H](NC(=O)N(C)C)CCCN1c1cnc(C(N)=O)c(Nc2ccc3cccnc3c2)n1 [Example D-121]
RESULT: 1000 to 10000 nM

QUERY: Form field: reported IC50 of C[C@@H]1[C@H](NC(=O)c2ccc(C(C)(C)C)s2)CCCN1c1cnc(C(N)=O)c(Nc2cnn(C)c2)n1 [Example D-229]
RESULT: > 10000 nM

QUERY: Form field: reported IC50 of Cc1cc(Nc2nc(N3CCC[C@H](NC(=O)N(C)C)[C@@H]3CO)cnc2C(N)=O)sn1 [Example D-68]
RESULT: 1000 to 10000 nM

QUERY: Form field: reported IC50 of Cc1cc(Nc2nc(N3CCCC(c4ncc(-c5ccccc5)[nH]4)C3)cnc2C(N)=O)sn1 [Example D-164]
RESULT: 100 to 1000 nM

QUERY: Form field: reported IC50 of Cn1cc(Nc2nc(N3CCC(NC(=O)c4ccc(C5CC5)cc4)C(O)C3)cnc2C(N)=O)cn1 (single isomer, unassigned) [Example D-28]
RESULT: > 10000 nM

QUERY: Form field: reported IC50 of CNC(=O)N[C@@H]1CCCN(c2cnc(C(N)=O)c(Nc3cnn(C)c3)n2)[C@@H]1C [Example D-109]
RESULT: 1000 to 10000 nM

Where do these numbers come from? They come from patent US20210070748A1.
